Hey, just so you know, these numbers are from ChEMBL document CHEMBL5029172.

EXPERIMENT_NOTES: Metabolic stability in human liver microsomes assessed as intact fractions at […] preincubated for 5 min measured by TLC followed by RP-HPLC
Format: ADME, Microsome
CONDITION_LABEL: read-out: Activity
MEASUREMENT_LABEL: remaining at 5 min

Observe how each entry below is paired with its result.
INSERT INTO measurements (compound, measurement_label, value_measured) VALUES
  ('CCC(CO)(C[125I])Cn1ccnc1[N+](=O)[O-] (stereo unspecified)', 'remaining at 5 min', '> 99.8%'),
  ('CCC(CC)(C[125I])Cn1ccnc1[N+](=O)[O-]', 'remaining at 5 min', '1.5%'),
  ('O=[N+]([O-])c1nccn1CC(CO)(CO)C[125I]', 'remaining at 5 min', '> 99.8%');

Task: Query (compound): O=C(O)[C@H]1O[C@@H](OCC(CO)(C[125I])Cn2ccnc2[N+](=O)[O-])[C@H](O)[C@@H](O)[C@@H]1O (stereo partly specified) ; field requested: remaining at 5 min
Output: > 99.8%

Task: // repeat for CCC(C[125I])(CO[C@@H]1O[C@H](C(=O)O)[C@@H](O)[C@H](O)[C@H]1O)Cn1ccnc1[N+](=O)[O-] (stereo partly specified) and report
Output: > 99.8%

Task: // repeat for O=[N+]([O-])c1nccn1CC(CO)(CO)C[211At] and report
Output: 96.9%
